Taken from patent US7338974B2.

biological target: BACE1 enzyme (Homo sapiens); construct: The HEK293-9B.A1 cell line, which overexpresses the BACE1 enzyme, was derived from HEK293 cells; endogenous in cells; washed membrane pellet / cell homogenate; test: Radioligand displacement assay with a radiolabeled BACE inhibitor on HEK293-9B.A1 cell homogenate; settings: displacement of 1 nM tritiated radioligand, HEK293-9B.A1 homogenate, pH 5.0, 1.5 hr at 25° C.; read-out: Activity Rating (Activity based on IC50 values)
Sequence (P56817 46-501): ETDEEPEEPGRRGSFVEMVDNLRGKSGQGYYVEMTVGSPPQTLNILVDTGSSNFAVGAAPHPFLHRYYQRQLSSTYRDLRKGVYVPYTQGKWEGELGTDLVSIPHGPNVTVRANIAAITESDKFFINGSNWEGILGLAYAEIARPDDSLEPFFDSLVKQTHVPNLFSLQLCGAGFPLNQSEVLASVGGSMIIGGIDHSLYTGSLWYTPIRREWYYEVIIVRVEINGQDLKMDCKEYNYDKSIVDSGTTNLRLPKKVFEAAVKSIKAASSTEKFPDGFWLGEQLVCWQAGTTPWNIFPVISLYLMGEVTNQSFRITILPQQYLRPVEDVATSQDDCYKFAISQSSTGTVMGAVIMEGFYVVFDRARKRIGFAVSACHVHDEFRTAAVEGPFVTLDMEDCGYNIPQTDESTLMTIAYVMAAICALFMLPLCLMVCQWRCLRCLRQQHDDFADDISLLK
pIC50: −log10 of the molar value.
Catalogue of compounds with associated pIC50
measurement_kind: pIC50

| compound | measured_target | result |
| --- | --- | --- |
| CCCC[C@H]1CCN([C@H]2CCCCO[C@@H]3C[C@H](NC[C@@H](O)[C@H](Cc4cc(F)cc(F)c4)NC2=O)c2cc(OC)ccc23)C1=O | BACE1 enzyme (Homo sapiens) | > 8.00 |
| COc1ccc2c(c1)C1CC2OCC=CCC(N2CCCC2=O)C(=O)N[C@@H](Cc2ccccc2)[C@H](O)CN1 (stereo partly shown) | BACE1 enzyme (Homo sapiens) | < 6.00 |
| COc1ccc2c(c1)[C@@H]1C[C@H]2OCC=CC[C@H](N2CCCC2=O)C(=O)N[C@@H](Cc2cc(F)cc(F)c2)[C@H](O)CN1 | BACE1 enzyme (Homo sapiens) | 6.00 to 8.00 |
| CCC(C)[C@@]1(NC(C)=O)CCN([C@H]2CC=CCO[C@@H]3C[C@H](NC[C@@H](O)[C@H](Cc4ccccc4)NC2=O)c2cc(OC)ccc23)C1=O (stereo partly shown) | BACE1 enzyme (Homo sapiens) | > 8.00 |
